Data origin: patent US20230167094A1

Known IC50 of a selection of molecules
Biological target: hERG (Homo sapiens)
Sequence (Q12809 whole entry): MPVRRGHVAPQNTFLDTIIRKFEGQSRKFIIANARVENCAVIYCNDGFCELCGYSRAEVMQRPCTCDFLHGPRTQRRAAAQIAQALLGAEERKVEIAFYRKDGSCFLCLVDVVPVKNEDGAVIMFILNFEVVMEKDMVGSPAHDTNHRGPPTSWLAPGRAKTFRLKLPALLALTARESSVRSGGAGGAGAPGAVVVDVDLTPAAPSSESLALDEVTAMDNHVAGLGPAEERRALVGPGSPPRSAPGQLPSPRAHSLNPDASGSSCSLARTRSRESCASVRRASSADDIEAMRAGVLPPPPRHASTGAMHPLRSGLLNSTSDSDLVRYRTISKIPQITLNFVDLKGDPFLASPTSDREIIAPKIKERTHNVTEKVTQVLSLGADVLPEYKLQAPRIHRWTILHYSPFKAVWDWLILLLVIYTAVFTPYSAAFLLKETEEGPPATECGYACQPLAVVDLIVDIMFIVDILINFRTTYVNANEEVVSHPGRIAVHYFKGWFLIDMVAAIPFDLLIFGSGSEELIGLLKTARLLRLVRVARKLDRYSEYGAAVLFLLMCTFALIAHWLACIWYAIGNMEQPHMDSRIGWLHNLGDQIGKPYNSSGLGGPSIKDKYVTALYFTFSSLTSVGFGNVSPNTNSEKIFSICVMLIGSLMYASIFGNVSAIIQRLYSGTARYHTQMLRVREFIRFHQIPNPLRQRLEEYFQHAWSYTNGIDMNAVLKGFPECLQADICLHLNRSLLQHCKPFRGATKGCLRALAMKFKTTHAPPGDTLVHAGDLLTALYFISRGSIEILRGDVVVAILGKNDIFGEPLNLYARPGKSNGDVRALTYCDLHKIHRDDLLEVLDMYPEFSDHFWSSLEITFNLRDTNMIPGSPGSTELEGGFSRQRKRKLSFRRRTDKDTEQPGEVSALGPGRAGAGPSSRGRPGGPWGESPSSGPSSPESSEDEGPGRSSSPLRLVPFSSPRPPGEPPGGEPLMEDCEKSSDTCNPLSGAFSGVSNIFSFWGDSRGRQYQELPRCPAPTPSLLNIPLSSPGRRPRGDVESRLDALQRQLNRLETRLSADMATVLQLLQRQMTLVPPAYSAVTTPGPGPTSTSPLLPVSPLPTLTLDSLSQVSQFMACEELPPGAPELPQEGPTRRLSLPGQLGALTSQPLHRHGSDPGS
Experiment: hERG assay (QPatch automated patch clamp, CHO cells)
Type: cell-based
Details: CHO cells stably expressing hERG; 1, 3, 10 and 30 μM; tail current; room temperature; read-out: hERG pIC50 (converted)

Molecule	IC50
Cc1cc(C)c2nc(-c3cnc(NCCCC4CCN(C)CC4)nc3C)[nH]c2c1 [Toreforant, reference compound]	3.16 µM
CNC1CN(c2cc(-c3cnn(C(F)F)c3)nc(N)n2)C1 [Example 1]	> 100 µM
CCc1[nH]nc(-c2cc(N3CC(NC)C3)nc(N)n2)c1C [Example 40]	> 31.6 µM
CNC1CN(c2cc(-c3cn(CC(F)(F)F)nc3C)nc(N)n2)C1 [Example 19]	> 31.6 µM
CNC1CN(c2cc(-c3cn(C(C)C)nc3C)nc(N)n2)C1 [Example 11]	> 100 µM
CNC1CN(c2cc(-c3c[nH]nc3C)nc(N)n2)C1 [Example 39]	> 31.6 µM
CNC1CN(c2cc(-c3cn(C)nc3C)nc(N)n2)C1 [Example 18]	> 100 µM
CNC1CN(c2cc(-c3c[nH]nc3C(F)(F)F)nc(N)n2)C1 [Example 37]	> 31.6 µM
CNC1CN(c2cc(-c3cnn(CC(F)(F)F)c3)nc(N)n2)C1 [Example 2]	> 100 µM
CNC1CN(c2cc(-c3cn(C)nc3Br)nc(N)n2)C1 [Example 31]	> 31.6 µM
CNC1CN(c2cc(-c3cn(C(F)F)nc3C)nc(N)n2)C1 [Example 4]	> 100 µM
CCn1cc(-c2cc(N3CC[C@@H](NC)C3)nc(N)n2)c(C)n1 [Example 14]	28.8 µM
CNC1CN(c2cc(-c3cnn(C)c3Br)nc(N)n2)C1 [Example 30]	> 100 µM
CCn1ncc(-c2cc(N3CC(NC)C3)nc(N)n2)c1C [Example 21]	> 100 µM
CN[C@@H]1CCN(c2cc(NCC3CC3)nc(N)n2)C1 [PF-3893787, reference compound]	7.94 µM
CNC1CN(c2cc(-c3cnn(C(F)F)c3C)nc(N)n2)C1 [Example 16]	> 100 µM
CN[C@@H]1CCN(c2cc(-c3cnn(C)c3Cl)nc(N)n2)C1 [Example 5]	> 100 µM
CNC1CN(c2cc(-c3n[nH]c(C(F)(F)F)c3C)nc(N)n2)C1 [Example 17]	> 100 µM
CNC1CN(c2cc(-c3cnn(CCF)c3)nc(N)n2)C1 [Example 10]	> 100 µM
CN1CCN(C(=O)c2cc3cc(Cl)ccc3[nH]2)CC1 [JNJ-7777120, reference compound]	≥ 100 µM
CCNC1CN(c2cc(-c3cnn(C(F)(F)F)c3)nc(N)n2)C1 [Example 7]	42.7 µM
CCn1cc(-c2cc(N3CC(NC)C3)nc(N)n2)c(C)n1 [Example 13]	> 100 µM
Nc1nc(-c2cnn(C(F)(F)F)c2)cc(N2CC(N)C2)n1 [Example 6]	> 100 µM
CNC1CN(c2cc(-c3[nH]nc(Cl)c3Cl)nc(N)n2)C1 [Example 42]	> 100 µM
CNC1CN(c2cc(-c3cn(C)nc3Cl)nc(N)n2)C1 [Example 29]	> 100 µM
CNC1CN(c2cc(-c3cn[nH]c3)nc(N)n2)C1 [Example 38]	> 31.6 µM
CNC1CN(c2cc(-c3cc(C)nn3C)nc(N)n2)C1 [Example 24]	> 100 µM
CNC1CN(c2cc(-c3cnn(CC(F)(F)F)c3C)nc(N)n2)C1 [Example 12]	38.9 µM
CNC1CN(c2cc(-c3cc(C(F)(F)F)nn3C)nc(N)n2)C1 [Example 27]	44.7 µM
CNC1CN(c2cc(-c3cc(C)[nH]n3)nc(N)n2)C1 [Example 35]	> 31.6 µM
CCn1cc(-c2cc(N3CC(NC)C3)nc(N)n2)cn1 [Example 3]	> 100 µM
CNC1CN(c2cc(-c3cnn(C(C)C)c3C)nc(N)n2)C1 [Example 22]	> 100 µM
